Where do the numbers come from? From patent US9938261B2.

target: KIT (Homo sapiens); construct: made in house; test: Competition binding assay, KIT Kd; settings: competition binding
Sequence (P10721 26-976): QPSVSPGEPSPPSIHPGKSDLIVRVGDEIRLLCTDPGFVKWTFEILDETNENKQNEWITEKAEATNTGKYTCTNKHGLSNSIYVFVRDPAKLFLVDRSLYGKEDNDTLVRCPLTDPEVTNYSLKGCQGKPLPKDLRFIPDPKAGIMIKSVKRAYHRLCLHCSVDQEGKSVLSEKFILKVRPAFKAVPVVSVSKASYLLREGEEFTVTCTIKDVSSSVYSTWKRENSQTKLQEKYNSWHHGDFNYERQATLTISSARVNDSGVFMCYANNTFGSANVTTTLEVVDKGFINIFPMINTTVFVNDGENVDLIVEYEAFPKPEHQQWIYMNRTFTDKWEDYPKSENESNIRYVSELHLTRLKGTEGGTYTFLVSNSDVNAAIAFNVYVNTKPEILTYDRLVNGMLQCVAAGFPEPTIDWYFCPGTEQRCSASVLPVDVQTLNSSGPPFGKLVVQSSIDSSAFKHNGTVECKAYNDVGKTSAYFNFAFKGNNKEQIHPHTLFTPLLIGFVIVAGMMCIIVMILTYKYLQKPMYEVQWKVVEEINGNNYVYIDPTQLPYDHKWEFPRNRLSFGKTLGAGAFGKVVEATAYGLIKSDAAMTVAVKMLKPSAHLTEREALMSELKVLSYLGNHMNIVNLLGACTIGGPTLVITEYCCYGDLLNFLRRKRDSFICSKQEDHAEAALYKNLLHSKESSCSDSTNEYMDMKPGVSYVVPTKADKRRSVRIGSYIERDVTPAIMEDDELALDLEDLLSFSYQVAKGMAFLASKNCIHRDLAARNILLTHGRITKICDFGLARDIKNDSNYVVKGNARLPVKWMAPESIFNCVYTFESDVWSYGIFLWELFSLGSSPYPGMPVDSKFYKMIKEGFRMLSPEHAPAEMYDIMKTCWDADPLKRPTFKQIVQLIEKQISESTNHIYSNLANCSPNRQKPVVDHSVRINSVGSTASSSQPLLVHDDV
Reported Property: Kd

* CC(=O)c1ccc2ncn(Cc3ccc4nc(N[C@@H]5CCCC[C@H]5O)sc4c3)c2c1 | 100 to 500 nM
* O[C@@H]1CCCC[C@H]1Nc1nc2ccc(Cn3cnc4cc(-n5cncn5)cnc43)cc2s1 | 100 to 500 nM
* Cn1nnc(-c2ccc3c(c2)ncn3Cc2ccc3nc(N[C@@H]4CCC[C@@H](O)[C@H]4O)sc3c2)n1 | 100 to 500 nM
* C#Cc1ccc2ncn(Cc3ccc4nc(N[C@@H]5CCCC[C@H]5O)sc4c3)c2c1 | 100 to 500 nM
* Cn1nnc(-c2ccc3c(c2)ncn3Cc2ccc3nc(N[C@@H]4CCCC[C@H]4O)sc3c2)n1 | 100 to 500 nM
* Oc1ccc2c(c1)ncn2Cc1ccc2nc(N[C@@H]3CCCC[C@H]3O)sc2c1 | ≤ 100 nM
* OCCOc1ccc2c(c1)ncn2Cc1ccc2nc(N[C@@H]3CCCC[C@H]3O)sc2c1 | 100 to 500 nM
* N#Cc1cc(F)c2c(c1)ncn2Cc1ccc2nc(N[C@@H]3CCCC[C@H]3O)sc2c1 | 100 to 500 nM

The compound `O[C@@H]1CCCC[C@H]1Nc1nc2ccc(Cn3cnc4cncnc43)cc2o1` showed Kd equal to 100 to 500 nM

Value of Kd reported for the compound `O[C@@H]1[C@H](O)CCC[C@H]1Nc1nc2ccc(Cc3cnc4cc(-n5nccn5)ccn34)cc2s1` is 500 to 2000 nM

Notebook: `O=C1CCCCN1c1ccc2c(c1)ncn2Cc1ccc2nc(N[C@@H]3CCCC[C@H]3O)sc2c1` , Kd read as 500 to 2000 nM

----------
biological target: UniProtKB P07333; assay: Competition binding assay, CSF1R Kd; set-up: made in house; settings: competition binding
Sequence (P07333 20-972): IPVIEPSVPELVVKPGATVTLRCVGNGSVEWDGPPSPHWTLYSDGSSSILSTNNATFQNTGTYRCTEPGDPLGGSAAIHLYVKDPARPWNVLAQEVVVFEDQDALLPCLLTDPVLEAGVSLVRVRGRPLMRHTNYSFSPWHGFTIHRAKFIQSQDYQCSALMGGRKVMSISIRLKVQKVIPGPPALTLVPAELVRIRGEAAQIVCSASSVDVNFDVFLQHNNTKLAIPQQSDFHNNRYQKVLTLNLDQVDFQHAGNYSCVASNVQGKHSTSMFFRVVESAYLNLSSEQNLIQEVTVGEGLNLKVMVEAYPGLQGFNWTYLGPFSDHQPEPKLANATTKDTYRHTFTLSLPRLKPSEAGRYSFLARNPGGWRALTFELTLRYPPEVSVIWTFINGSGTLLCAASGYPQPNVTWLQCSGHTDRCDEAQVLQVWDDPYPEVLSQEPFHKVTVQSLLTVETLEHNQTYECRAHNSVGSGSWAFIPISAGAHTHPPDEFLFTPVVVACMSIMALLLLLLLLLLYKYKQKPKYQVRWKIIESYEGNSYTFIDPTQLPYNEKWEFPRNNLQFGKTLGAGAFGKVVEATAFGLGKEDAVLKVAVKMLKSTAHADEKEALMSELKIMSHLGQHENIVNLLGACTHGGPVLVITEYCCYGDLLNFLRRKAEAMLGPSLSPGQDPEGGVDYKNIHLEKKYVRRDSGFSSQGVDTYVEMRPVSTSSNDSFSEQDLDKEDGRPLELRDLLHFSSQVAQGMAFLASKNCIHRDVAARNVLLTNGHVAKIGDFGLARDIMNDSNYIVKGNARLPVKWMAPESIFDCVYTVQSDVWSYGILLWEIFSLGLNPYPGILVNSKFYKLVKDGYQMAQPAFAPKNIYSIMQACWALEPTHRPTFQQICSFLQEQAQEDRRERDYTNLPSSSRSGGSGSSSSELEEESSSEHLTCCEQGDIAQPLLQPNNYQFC
pKd: −log10 of the molar value.
# key: entry, value: pKd

In the examples that follow, each entry is paired with its recorded pKd.
- O[C@@H]1CCCC[C@H]1Nc1nc2ccc(Cn3cnc4cnc(C(F)(F)F)nc43)cc2s1: 7.70 to 8.30
- COc1nc2c(cc1Br)ncn2Cc1ccc2nc(N[C@@H]3CCCC[C@H]3O)sc2c1: 7.70 to 8.30
- CC(O)c1cnc2c(c1)ncn2Cc1ccc2nc(N[C@@H]3CCCC[C@H]3O)sc2c1 (stereo partly shown): < 7.30

Sample `O[C@@H]1CCCC[C@H]1Nc1nc2ccc(Cn3cnc4cc(C(F)(F)F)ccc43)cc2s1` ; pKd observed: 7.70 to 8.30

----------
Examples of compounds with documented Kd follow.
biological target: PDGFRβ (Homo sapiens, UniProt P09619); construct: made in house; assay: Competition binding assay, PDGFRβ Kd; conditions: competition binding
Sequence (P09619 33-1106): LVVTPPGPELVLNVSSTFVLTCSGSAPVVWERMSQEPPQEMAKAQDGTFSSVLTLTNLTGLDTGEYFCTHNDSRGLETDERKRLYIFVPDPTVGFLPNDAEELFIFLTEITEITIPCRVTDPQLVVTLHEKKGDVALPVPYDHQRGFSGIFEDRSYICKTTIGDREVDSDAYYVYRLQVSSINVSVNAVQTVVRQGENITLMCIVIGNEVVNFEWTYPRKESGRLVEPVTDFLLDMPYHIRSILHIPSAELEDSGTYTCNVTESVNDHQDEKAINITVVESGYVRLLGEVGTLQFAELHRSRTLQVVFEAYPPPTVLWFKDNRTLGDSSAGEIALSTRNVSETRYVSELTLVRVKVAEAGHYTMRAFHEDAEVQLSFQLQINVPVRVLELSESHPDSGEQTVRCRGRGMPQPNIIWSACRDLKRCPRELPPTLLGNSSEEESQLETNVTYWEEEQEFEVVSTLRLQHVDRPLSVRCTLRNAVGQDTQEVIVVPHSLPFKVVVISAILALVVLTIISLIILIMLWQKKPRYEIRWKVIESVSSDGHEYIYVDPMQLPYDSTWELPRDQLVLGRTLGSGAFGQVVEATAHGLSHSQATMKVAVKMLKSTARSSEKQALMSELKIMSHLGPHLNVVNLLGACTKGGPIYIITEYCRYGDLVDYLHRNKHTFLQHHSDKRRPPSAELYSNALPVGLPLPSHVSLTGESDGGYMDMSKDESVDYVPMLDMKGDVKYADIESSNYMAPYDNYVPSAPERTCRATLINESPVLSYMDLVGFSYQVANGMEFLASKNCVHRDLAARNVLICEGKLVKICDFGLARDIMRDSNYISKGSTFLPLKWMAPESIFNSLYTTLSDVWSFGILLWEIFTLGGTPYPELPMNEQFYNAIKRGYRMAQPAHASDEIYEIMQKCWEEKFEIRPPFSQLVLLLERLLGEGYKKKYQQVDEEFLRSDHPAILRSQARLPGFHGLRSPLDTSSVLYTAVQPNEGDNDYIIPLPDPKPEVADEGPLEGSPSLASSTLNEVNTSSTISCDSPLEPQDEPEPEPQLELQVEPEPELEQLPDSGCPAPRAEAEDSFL
Where a name gives a salt, the structure may show the parent alone.

Some compounds with recorded Kd:
- Cn1nnc(-c2ccc3c(c2)ncn3Cc2ccc3nc(N[C@@H]4CCCC[C@H]4O)sc3c2)n1 [Example 227]: 50 to 500 nM
- O[C@@H]1CCCC[C@H]1Nc1nc2ccc(Cn3cnc4cc(C(F)(F)F)ccc43)cc2s1 [Example 130]: ≤ 50 nM
- CN(C)CC(=O)c1cnc2c(c1)ncn2Cc1ccc2nc(N[C@@H]3CCCC[C@H]3O)sc2c1 [Example 116, acetate salt]: 50 to 500 nM

Lab book: Kd of O=C1CCCCN1c1ccc2c(c1)ncn2Cc1ccc2nc(N[C@@H]3CCCC[C@H]3O)sc2c1 [Example 210] noted as 500 to 2000 nM

Documented Kd of COc1ccccc1Nc1nc2ccc(Cn3cnc4cc(F)cnc43)cc2s1 [Example 197] : 50 to 500 nM

Quick note, Kd for N#CCOc1ccc2c(c1)ncn2Cc1ccc2nc(N[C@@H]3CCCC[C@H]3O)sc2c1 [Example 196] landed at 50 to 500 nM

Note to self: Kd recorded for O=c1c(N2CCOCC2)nccn1Cc1ccc2nc(N[C@@H]3CCCC[C@H]3O)sc2c1 [Example 222] was 500 to 2000 nM

Kd recorded for this compound, CC(C)(O)C#Cc1cnc2c(c1)ncn2Cc1ccc2nc(N[C@@H]3CCCC[C@H]3O)sc2c1 [Example 104] , is ≤ 50 nM
